Origin of the recorded values: PubChem BioAssay (NCI)

# reported growth; entries follow
system: PC-3 prostate; experiment: NCI-60 one-dose screen, 48 h (100 = growth as untreated, 0 = no growth, -100 = all killed); conditions: 10 µM
About 83,000 compounds went through this panel and 20% of them were active in at least one assay; those are over-represented in the sample as a whole.
State the answer as a number, implicitly in %.

MOLECULE | MEASUREMENT_KIND | VAL
C[n+]1c(/C=C/c2c[nH]c3ccccc23)ccc2ccccc21 | growth | 52.1
COc1ccc(C2C=C(c3ccc(Cl)c(Cl)c3)N=C3SC(C)=CN32)cc1 (stereo unspecified) | growth | 90.5
CS(=O)(=O)Nc1ccc([N+](=O)[O-])cc1Oc1ccccc1 | growth | 95.4
Cc1cc(/C=C2\SC(=Nc3ccccc3)N(C3CCCC3)C2=O)c(C)n1-c1ccc(Cl)cc1 | growth | -63.4
COc1cccc2c1C(=O)c1c(O)c3c(c(O)c1C2=O)C[C@@](O)(C(=O)COC(=O)c1ccccc1)C[C@@H]3OC1CC(N)C(O)C(C)O1 (stereo partly specified) | growth | -95.6
O=S(=O)(NCCO)c1ccc(OCCOc2ccc(S(=O)(=O)NCCO)cc2)cc1 | growth | 89.1

Could you tell me which growth is on file for COC(=O)c1ccc(Cn2ccc(=O)[nH]c2=O)cc1 ? 98.4

Looking for the measured growth of CCOC(=O)/C(C#N)=C(/C)C1CC1 , can you help? 97.3

// returns reported growth for input FC(F)(F)c1ccc(-c2cnc(Br)nc2NC2CCCCCC2)cc1 5.8

Reported growth for Cc1nc(Nc2nc3ccccc3o2)nc(-c2cccc([N+](=O)[O-])c2)c1C(=O)Nc1ccc(F)c(Cl)c1 : what is it? 6.84

Form field: reported growth of COC1OC2COC(c3ccccc3)OC2C(=O)C1NC(=O)c1ccccc1 (stereo unspecified) 85

// growth lookup, key: O=C1/C(=C/c2ccc([N+](=O)[O-])s2)Oc2ccc(Cl)cc21 -48
